biological target: Cholinesterase (Equus caballus) (UniProt P81908); assay: Inhibition of equine serum butyrylcholinesterase at 20 uM using butyrylthiocholine iodide as substrate preincubated for 10 mins followed by substrate addition by Ellman's method relative to control
Sequence (P81908 whole entry): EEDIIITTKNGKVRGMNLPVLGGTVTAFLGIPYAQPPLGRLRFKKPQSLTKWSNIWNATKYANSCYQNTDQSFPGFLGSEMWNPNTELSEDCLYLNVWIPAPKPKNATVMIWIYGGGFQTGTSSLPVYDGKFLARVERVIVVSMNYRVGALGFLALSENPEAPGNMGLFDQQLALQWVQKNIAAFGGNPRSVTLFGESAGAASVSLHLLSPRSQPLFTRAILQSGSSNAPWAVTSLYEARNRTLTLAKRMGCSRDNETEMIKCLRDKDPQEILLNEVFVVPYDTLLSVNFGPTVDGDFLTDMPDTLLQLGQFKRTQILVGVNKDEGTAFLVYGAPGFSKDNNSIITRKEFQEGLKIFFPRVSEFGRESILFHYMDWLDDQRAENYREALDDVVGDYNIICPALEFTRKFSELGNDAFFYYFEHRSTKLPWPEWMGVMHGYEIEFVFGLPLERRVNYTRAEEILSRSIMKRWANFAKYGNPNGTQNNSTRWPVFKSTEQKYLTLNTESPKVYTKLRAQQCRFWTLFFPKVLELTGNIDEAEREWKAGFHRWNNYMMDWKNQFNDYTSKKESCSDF
Active and inactive are the calls of the source. The calls are words filed in the database; no cut-off is given here.
MEASURED_PROPERTY: inhibition

A selection of reference data follows.
COC(=O)C1=NNc2ncnn2C1(O)C(F)(F)C(F)(F)C(F)(F)C(F)(F)F (stereo not given)
inactive
CCOC(=O)C1=NNc2nnnn2C1(O)C(F)(F)F (stereo not given)
inactive
O=C(C1=NNc2ncnn2C1(O)C(F)(F)C(F)(F)C(F)(F)F)c1ccccc1 (stereo not given)
inactive
CCOC(=O)C1=NNc2cc(C)nn2C1(O)C(F)(F)F (stereo not given)
7.3%
CCOC(=O)C1=NNc2cc(-c3ccccc3)nn2C1(O)C(F)(F)F (stereo not given)
inactive

GET /value?item= CCOC(=O)C1=NNc2cc(-c3ccccc3)nn2C1(O)C(F)(F)C(F)(F)F (stereo not given) &field=inhibition returns 22%

Record CCOC(=O)C1=NNc2ncnn2C1(O)C(F)(F)F (stereo not given) . Reported inhibition: inactive

Measured inhibition of CCOC(=O)C1=NNc2ncnn2C1(O)C(F)(F)C(F)(F)C(F)(F)C(F)(F)F (stereo not given) : 3.7%

So, COC(=O)C1=NNc2cc(-c3ccccc3)nn2C1(O)C(F)(F)C(F)(F)C(F)(F)C(F)(F)F (stereo not given) ? Its inhibition was 11.6%

Quick note, inhibition for CCOC(=O)C1=NNc2nnnn2C1(O)C(F)(F)C(F)(F)C(F)(F)C(F)(F)F (stereo not given) landed at inactive

====

molecular target: Cholinesterase (Equus caballus); test: Inhibition of equine serum butyrylcholinesterase at 20 uM using butyrylthiocholine iodide as substrate preincubated for 10 mins followed by substrate addition by Ellman's method relative to control
The source made the active and inactive calls. The rule behind the calls is not given here.
MEASURED_PROPERTY: inhibition

Completed entries (count: 4):
COC(=O)C1=NNc2nnnn2C1(O)C(F)(F)C(F)(F)C(F)(F)F (stereo not given)
inactive
COC(=O)C1=NNc2nnnn2C1(O)C(F)(F)C(F)F (stereo not given)
inactive
CCOC(=O)C1=NNc2c(C(=O)OCC)ncn2C1(O)C(F)(F)F (stereo not given)
inactive
COC(=O)C1=NNc2nnnn2C1(O)C(F)(F)C(F)(F)C(F)(F)C(F)(F)F (stereo not given)
inactive

Now turn to the next compound.
Query CCOC(=O)C1=NNc2cc(-c3ccccc3)nn2C1(O)C(F)(F)C(F)(F)C(F)(F)C(F)(F)F (stereo not given) on Cholinesterase (Equus caballus); inhibition returned: 16.2%

====

Biological target: Liver carboxylesterase (Sus scrofa)
Sequence (Q29550 whole entry): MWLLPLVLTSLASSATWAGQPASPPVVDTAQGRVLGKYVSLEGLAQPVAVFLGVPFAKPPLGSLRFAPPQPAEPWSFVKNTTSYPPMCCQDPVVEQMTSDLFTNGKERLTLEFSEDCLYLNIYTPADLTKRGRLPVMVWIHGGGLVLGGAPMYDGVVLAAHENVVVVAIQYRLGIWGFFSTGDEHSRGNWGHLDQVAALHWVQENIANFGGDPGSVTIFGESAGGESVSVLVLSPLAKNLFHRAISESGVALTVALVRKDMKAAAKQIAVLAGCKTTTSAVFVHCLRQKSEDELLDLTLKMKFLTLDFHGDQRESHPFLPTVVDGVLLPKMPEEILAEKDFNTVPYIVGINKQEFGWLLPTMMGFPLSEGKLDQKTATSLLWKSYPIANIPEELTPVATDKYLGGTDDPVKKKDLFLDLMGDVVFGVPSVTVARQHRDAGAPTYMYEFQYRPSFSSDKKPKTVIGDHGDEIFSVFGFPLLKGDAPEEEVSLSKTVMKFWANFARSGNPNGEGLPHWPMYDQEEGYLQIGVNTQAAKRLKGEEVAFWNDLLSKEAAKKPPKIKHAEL
Experiment: Non-competitive inhibition of porcine liver carboxylesterase using varying levels of 4-nitrophenol acetate as substrate preincubated for 10 mins followed by substrate addition by Lineweaver-Burk plot analysis
Settings: pig
MEASURED_PROPERTY: log10(alphaKi) (log10 of the value in µM)
Please note: log10 values; quantity alphaKi; unit µM.

# annotated cases, reported log10(alphaKi) shown
COC(=O)C1=NNc2nnnn2C1(O)C(F)(F)C(F)(F)C(F)(F)C(F)(F)F (stereo not given)
0.24
COC(=O)C1=NNc2cc(-c3ccccc3)nn2C1(O)C(F)(F)C(F)(F)C(F)(F)C(F)(F)F (stereo not given)
0.20
COC(=O)C1=NNc2ncnn2C1(O)C(F)(F)C(F)(F)C(F)(F)C(F)(F)F (stereo not given)
1.37
CCOC(=O)C1=NNc2cc(-c3ccccc3)nn2C1(O)C(F)(F)C(F)(F)C(F)(F)C(F)(F)F (stereo not given)
-0.16

Now look at this entry.
log10(alphaKi) on Liver carboxylesterase (Sus scrofa) for CCOC(=O)C1=NNc2cc(-c3ccccc3)nn2C1(O)C(F)(F)C(F)(F)F (stereo not given) is 0.55

====

target: Acetylcholinesterase (Homo sapiens); assay: Inhibition of human erythrocyte acetylcholinesterase at 20 uM using acetylthiocholine iodide as substrate preincubated for 10 mins followed by substrate addition by Ellman's method relative to control
The source made the active and inactive calls. No cut-off for these calls is given here.
MEASURED_PROPERTY: inhibition

Known results for molecules:
CCOC(=O)C1=NNc2nnnn2C1(O)C(F)(F)F (stereo not given)
inactive
CCOC(=O)C1=NNc2cc(C)nn2C1(O)C(F)(F)C(F)(F)C(F)(F)C(F)(F)F (stereo not given)
3%
CCOC(=O)C1=NNc2cc(-c3ccccc3)nn2C1(O)C(F)(F)F (stereo not given)
3.8%
CCOC(=O)c1nnc(N)nc1C(F)(F)F
inactive
CCOC(=O)C1=NNc2cc(-c3ccccc3)nn2C1(O)C(F)(F)C(F)(F)F (stereo not given)
13.6%
CCOC(=O)C1=NNc2c(C(=O)OCC)cnn2C1(O)C(F)(F)F (stereo not given)
inactive
CCOC(=O)c1cnn2c1NN=C(C(=O)OC)C2(O)C(F)(F)C(F)(F)C(F)(F)F (stereo not given)
inactive
COC(=O)C1=NNc2nnnn2C1(O)C(F)(F)C(F)F (stereo not given)
inactive

Acetylcholinesterase (Homo sapiens) inhibition of CCOC(=O)C1=NNc2cc(-c3ccccc3)nn2C1(O)C(F)(F)C(F)(F)C(F)(F)C(F)(F)F (stereo not given) is inactive

Per the reported Acetylcholinesterase (Homo sapiens) data, COC(=O)C1=NNc2cc(-c3ccccc3)nn2C1(O)C(F)(F)C(F)(F)C(F)(F)C(F)(F)F (stereo not given) has inhibition of 11.7%

====

molecular target: UniProt:Q29550
Ki vs 700 nM: less than gives 1; not less than gives -1.

COC(=O)C1=NNc2nnnn2C1(O)C(F)(F)C(F)(F)C(F)(F)C(F)(F)F (stereo not given)
1
CCOC(=O)C1=NNc2cc(-c3ccccc3)nn2C1(O)C(F)(F)C(F)(F)F (stereo not given)
-1
CCOC(=O)C1=NNc2cc(-c3ccccc3)nn2C1(O)C(F)(F)C(F)(F)C(F)(F)C(F)(F)F (stereo not given)
1

Prompt line: Problem: For the molecule COC(=O)C1=NNc2ncnn2C1(O)C(F)(F)C(F)(F)C(F)(F)C(F)(F)F (stereo not given) , is Ki under 700 nM?
Response line: -1

====

The following compounds have recorded pIC50 on Liver carboxylesterase (Sus scrofa, UniProt Q29550).
A value of pIC50 is the negative decimal logarithm of a concentration given in moles per litre.

Worked set:
COC(=O)C1=NNc2nnnn2C1(O)C(F)(F)F (stereo unspecified)
4.23
O=C(C1=NNc2nnnn2C1(O)C(F)(F)F)c1ccccc1 (stereo unspecified)
4.76
CCOC(=O)C1=NNc2nnnn2C1(O)C(F)(F)F (stereo unspecified)
4.87

What the record says about CCOC(=O)C1=NNc2cc(C)nn2C1(O)C(F)(F)F (stereo unspecified) : pIC50 is 4.32

// recorded pIC50 for O=[N+]([O-])c1ccc(OP(=O)(O)Oc2ccc([N+](=O)[O-])cc2)cc1 : 5.74

So for CCOC(=O)C1=NNc2cc(-c3ccccc3)nn2C1(O)C(F)(F)C(F)(F)C(F)(F)C(F)(F)F (stereo unspecified) , the logged pIC50 turned out to be 6.34

The compound CCOC(=O)C1=NNc2cc(-c3ccccc3)nn2C1(O)C(F)(F)C(F)(F)F (stereo unspecified) showed pIC50 equal to 5.41

====

target: Cholinesterase (Equus caballus); assay: Inhibition of equine serum butyrylcholinesterase at 20 uM using butyrylthiocholine iodide as substrate preincubated for 10 mins followed by substrate addition by Ellman's method relative to control
The source made the active and inactive calls. No cut-off for these calls is given here.
MEASURED_PROPERTY: inhibition

As a guide, the following entries are already answered.
O=[N+]([O-])c1ccc(OP(=O)(O)Oc2ccc([N+](=O)[O-])cc2)cc1
inactive
CCOC(=O)C1=NNc2cc(C)nn2C1(O)C(F)(F)C(F)(F)C(F)(F)C(F)(F)F (configuration not stated)
6%
CCOC(=O)c1cnn2c1NN=C(C(=O)OC)C2(O)C(F)(F)C(F)(F)C(F)(F)F (configuration not stated)
inactive
O=C(C1=NNc2nnnn2C1(O)C(F)(F)F)c1ccccc1 (configuration not stated)
inactive
CCOC(=O)c1nnc(N)nc1C(F)(F)F
inactive
CCOC(=O)C1=NNc2c(C(=O)OCC)cnn2C1(O)C(F)(F)F (configuration not stated)
8.5%

Shift focus to the following entry.
Per the records, this compound ( COC(=O)C1=NNc2nnnn2C1(O)C(F)(F)F (configuration not stated) ) has inhibition equal to 4.1%
